target: MLE dsRBD2 (UniProt P24785 155-257); experiment: ITC; n=0.93; Filter binding: 20 mM HEPES/NaOH pH 8.0, 150 mM NaCl, 5 mM MgCl2, on ice; ITC: 10 mM HEPES pH 8.0, 75 mM NaCl, 2.5 mM MgCl2, 1 mM b-mercaptoethanol, 20 C; NMR:; settings: protein: recombinant; tags: N-terminal His6 removed by TEV; hairpin
ENDPOINT_LABEL: Kd (µM)
Report the value in µM with no unit label.

stdin: Need Kd of GUGUAAAAUGUUGCAAUAUAUAGUAACGUUUUACGC (structured_RNA) [SL7 14merLoop] , thanks.
stdout: 5.92
